Tested on: foreign-body (sponge) granuloma in rats
Assay: Experimental granuloma induced by foreign body, weight of the granulomas
Format: in vivo, Wistar rats
Details: Rattus norvegicus, po, 240 h; 100 mg/kg, 10 days after implantation; Table XIb; read-out: decrease in the weight of the granulomas
endpoint-name: change in vivo at 100 mg/kg (%)
Write the answer as a number in %, unit excluded.

O=C(O)CCCCCCCCCCCNS(=O)(=O)c1ccc(Cl)c(C(=O)c2ccccc2)c1 [Compound 1736]
-55

# change in vivo at 100 mg/kg lookup, item O=C(O)CCCCCCCCCCNS(=O)(=O)c1ccc(Cl)cc1C(=O)c1ccccc1Cl [Compound 1574]
-55

Give its change in vivo at 100 mg/kg value. Item: O=C(O)CCCCCCCCCCCNS(=O)(=O)c1ccc(Cl)cc1C(=O)c1ccccc1Cl [Compound 1755]
-55

Look at this molecule and give its reported change in vivo at 100 mg/kg. O=C(O)CCCCCCCCCCNS(=O)(=O)c1ccc(Cl)cc1C(O)c1ccccc1Cl (stereo not shown) [Compound 1796]
-60
